target: SEAP-His (Homo sapiens, UniProt P05187); assay: Selectivity ELISA of humanized antibodies for human Eph receptor; type: binding; settings: coated protein 1 nM
Sequence (P05187 23-511 limits assumed): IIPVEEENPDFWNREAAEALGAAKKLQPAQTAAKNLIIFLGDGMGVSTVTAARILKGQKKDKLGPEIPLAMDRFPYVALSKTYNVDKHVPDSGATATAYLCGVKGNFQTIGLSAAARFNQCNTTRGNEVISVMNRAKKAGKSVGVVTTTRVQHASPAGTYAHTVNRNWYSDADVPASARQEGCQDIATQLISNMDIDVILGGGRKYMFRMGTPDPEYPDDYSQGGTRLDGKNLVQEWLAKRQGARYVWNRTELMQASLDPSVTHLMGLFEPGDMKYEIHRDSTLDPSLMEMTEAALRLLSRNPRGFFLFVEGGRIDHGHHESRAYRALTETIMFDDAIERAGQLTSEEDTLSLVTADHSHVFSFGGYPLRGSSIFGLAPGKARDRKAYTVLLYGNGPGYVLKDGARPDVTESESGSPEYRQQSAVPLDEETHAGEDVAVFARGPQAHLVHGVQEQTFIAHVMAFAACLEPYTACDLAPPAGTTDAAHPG
attributeMeasured: SEAP-His: absorbance at 450 nm, percentage with respect to hEphA4-SEAP-His as 100% (%)
Answers are plain numbers, in %.

Data request, read-out SEAP-His: absorbance at 450 nm, percentage with respect to hEphA4-SEAP-His as 100%, for 141 (antibody, V domains shown, synthetic humanized antibody heavy chain variable region sequence; synthetic humanized antibody light chain variable region sequence) VH: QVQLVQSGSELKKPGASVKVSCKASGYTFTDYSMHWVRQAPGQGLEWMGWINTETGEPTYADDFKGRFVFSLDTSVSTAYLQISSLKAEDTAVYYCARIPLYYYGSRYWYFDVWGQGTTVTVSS VL: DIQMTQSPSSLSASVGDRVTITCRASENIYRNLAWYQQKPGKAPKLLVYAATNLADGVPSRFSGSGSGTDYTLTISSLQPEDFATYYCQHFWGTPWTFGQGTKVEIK
5.0

All values here come from patent US10428140B2.
